test: LC-MS analysis of probes before and after UV irradiation; type: physicochemical; conditions: irradiation at 365 nm, gradient 10% to 95% acetonitrile with 0.1% formic acid
READOUT NAME: Change of probe upon UV irradiation (LC-MS before and after)

INSERT INTO results (substance, test_result) VALUES
  ('Hexynoyl-photoLeu-Asp-Glu-Val-Aspψ(CH2NH)-Ala-NH2 [9b]', 'loss of nitrogen'),
  ('Hexynoyl-Asp-Glu-Val-Aspψ(CH2NH)-Ala-photoLeu-NH2 [10b]', 'loss of nitrogen');
